Test system: ES7 (Ewing's Sarcoma)
TEST_PROTOCOL: Bliss excess, mean over the matrix (fraction); higher = more synergy
For each record, write down the corresponding Bliss excess.
No unit in the answer, only the number.

Recorded Bliss excess (compound Cc1c2c(nn1C)CSCc1cc(n(C)n1)CSc1cc(c3ccccc3c1)OCCCc1c(C(=O)O)n(C)c3c-2c(Cl)ccc13 [AZD5991] + C[C@@H](Nc1cc(F)cc(F)c1)c1cc(C(=O)N(C)C)cc2c(=O)cc(N3CCOCC3)oc12 [AZD8186] (first compound max 1 µM, 7x7, partner max 3 µM) ): 0.0995

Quick note, Bliss excess for CN(CCO)CC[C@H](CSc1ccccc1)Nc1ccc(S(=O)(=O)NC(=O)c2ccc(N3CCC([C@@H](O)c4ccccc4-c4ccc(Cl)cc4)CC3)cc2)cc1S(=O)(=O)C(F)(F)F [AZD4320] + C[C@@H](Nc1cc(F)cc(F)c1)c1cc(C(=O)N(C)C)cc2c(=O)cc(N3CCOCC3)oc12 [AZD8186] (first compound max 1 µM, 7x7, partner max 3 µM) landed at 0.136

Briefly, Bliss excess measured for NC1(C(=O)N[C@@H](CCO)c2ccc(Cl)cc2)CCN(c2ncnc3[nH]ccc23)CC1 [Capivasertib] + CCN(CCO)CCCOc1ccc2c(Nc3cc(CC(=O)Nc4cccc(F)c4)[nH]n3)ncnc2c1 [AZD2811] (first compound max 10 µM, 7x7, partner max 1 µM) : -0.0354

###

Test system: KATOIII (Gastric Carcinoma)
TEST_PROTOCOL: Bliss excess, mean over the matrix (fraction); higher = more synergy
OBSERVED_PROPERTY: Bliss excess
Would you mind answering with just the numeric figure?

Recorded result, CC1(C)CCC(CN2CCN(c3ccc(C(=O)NS(=O)(=O)c4ccc(NCC5CCOCC5)c([N+](=O)[O-])c4)c(Oc4cnc5[nH]ccc5c4)c3)CC2)=C(c2ccc(Cl)cc2)C1 [Venetoclax] + Cc1cc2ncnn2cc1Nc1ncc2c(n1)n(C1CCOCC1)c(=O)n2C [AZD7648] (first compound max 1 µM, 7x7, partner max 10 µM) , Bliss excess: -0.0076

// NC1(C(=O)N[C@@H](CCO)c2ccc(Cl)cc2)CCN(c2ncnc3[nH]ccc23)CC1 [Capivasertib] + Cn1cnc2c(F)c(Nc3ccc(Br)cc3Cl)c(C(=O)NOCCO)cc21 [Selumetinib] (first compound max 10 µM, 7x7, partner max 10 µM) : Bliss excess value = 0.0291

###

Tested on: SUIT-2 (Pancreatic Carcinoma)
TEST_PROTOCOL: combination Emax (second highest fraction inhibited in the dose matrix, 72 h); higher = more inhibition; extreme values may be limits of the assay
Would you mind telling me the reported combination Emax of each entry?

Form field combination Emax, entry NC1(C(=O)N[C@@H](CCO)c2ccc(Cl)cc2)CCN(c2ncnc3[nH]ccc23)CC1 [Capivasertib] + C[C@@H]1COCCN1C2=NC(=NC(=C2)C3(CC3)[S@](=N)(=O)C)C4=C5C=CNC5=NC=C4 [AZD6738] (first compound max 10 µM, 7x7, partner max 10 µM) : 0.493

Looking up Cc1c2c(nn1C)CSCc1cc(n(C)n1)CSc1cc(c3ccccc3c1)OCCCc1c(C(=O)O)n(C)c3c-2c(Cl)ccc13 [AZD5991] + C[C@@H](Nc1cc(F)cc(F)c1)c1cc(C(=O)N(C)C)cc2c(=O)cc(N3CCOCC3)oc12 [AZD8186] (first compound max 1 µM, 7x7, partner max 3 µM) , I see its combination Emax listed as 0.175

Form field combination Emax, entry CN(CCO)CC[C@H](CSc1ccccc1)Nc1ccc(S(=O)(=O)NC(=O)c2ccc(N3CCC([C@@H](O)c4ccccc4-c4ccc(Cl)cc4)CC3)cc2)cc1S(=O)(=O)C(F)(F)F [AZD4320] + C1CN(CCC1(C(=O)N[C@@H](CCO)C2=CC=C(C=C2)Cl)N)C3=NC=NC4=C3C=CN4 [Capivasertib] (first compound max 1 µM, 7x7, partner max 3 µM) : 0.074

Looking up COc1cc2c(cc1OCCCCCOc1cc3c(cc1OC)C(=O)N1C=C(C)C[C@H]1C=N3)N=C[C@@H]1CC(C)=CN1C2=O [SG3199] + O=C(c1cc(Cc2n[nH]c(=O)c3ccccc23)ccc1F)N1CCN(C(=O)C2CC2)CC1 [Olaparib] (first compound max 0.001 µM, 7x7, partner max 10 µM) , I found its combination Emax recorded as 0.187

Recorded combination Emax (molecule CN(CCO)CC[C@H](CSc1ccccc1)Nc1ccc(S(=O)(=O)NC(=O)c2ccc(N3CCC([C@@H](O)c4ccccc4-c4ccc(Cl)cc4)CC3)cc2)cc1S(=O)(=O)C(F)(F)F [AZD4320] + Cn1cnc2c(F)c(Nc3ccc(Br)cc3Cl)c(C(=O)NOCCO)cc21 [Selumetinib] (first compound max 1 µM, 7x7, partner max 3 µM) ): 0.406

Sample CC1(C)CCC(CN2CCN(c3ccc(C(=O)NS(=O)(=O)c4ccc(NCC5CCOCC5)c([N+](=O)[O-])c4)c(Oc4cnc5[nH]ccc5c4)c3)CC2)=C(c2ccc(Cl)cc2)C1 [Venetoclax] + CN(C)CCCOc1ccc(-c2ccc3ncc4c(c3c2)n(C2CCOCC2)c(=O)n4C)cn1 [AZD0156] (first compound max 1 µM, 7x7, partner max 1 µM) ; combination Emax observed: 0.207

Recorded result, CCc1c2c(nc3ccc(O)cc13)-c1cc3c(c(=O)n1C2)COC(=O)[C@]3(O)CC [SN-38] + CN(C)CCCOc1ccc(-c2ccc3ncc4c(c3c2)n(C2CCOCC2)c(=O)n4C)cn1 [AZD0156] (first compound max 0.3 µM, 7x7, partner max 1 µM) , combination Emax: 0.744

###

Test system: MDA-MB-157 (Breast Carcinoma)
TEST_PROTOCOL: combination Emax (second highest fraction inhibited in the dose matrix, 72 h); higher = more inhibition; extreme values may be limits of the assay
OBSERVED_PROPERTY: combination Emax
// return a plain number; no unit text

Recorded combination Emax (compound COc1cccc(OCCCN)c1-c1cc(Nc2cnc(C#N)cn2)n[nH]1 [Prexasertib] + O=C(c1cc(Cc2n[nH]c(=O)c3ccccc23)ccc1F)N1CCN(C(=O)C2CC2)CC1 [Olaparib] (first compound max 1 µM, 7x7, partner max 10 µM) ): 0.938

Summary for this compound, C=CCn1c(=O)c2cnc(Nc3ccc(N4CCN(C)CC4)cc3)nc2n1-c1cccc(C(C)(C)O)n1 [AZD1775] + O=C(c1cc(Cc2n[nH]c(=O)c3ccccc23)ccc1F)N1CCN(C(=O)C2CC2)CC1 [Olaparib] (first compound max 1 µM, partner max 10 µM) : combination Emax is 0.723

The measured combination Emax associated with CCN(CCO)CCCOc1ccc2c(Nc3cc(CC(=O)Nc4cccc(F)c4)[nH]n3)ncnc2c1 [AZD2811] + C[C@@H]1COCCN1C2=NC(=NC(=C2)C3(CC3)[S@](=N)(=O)C)C4=C5C=CNC5=NC=C4 [AZD6738] (first compound max 1 µM, 7x7, partner max 10 µM) reads 0.894

// field: combination Emax; key: CC1(C)CCC(CN2CCN(c3ccc(C(=O)NS(=O)(=O)c4ccc(NCC5CCOCC5)c([N+](=O)[O-])c4)c(Oc4cnc5[nH]ccc5c4)c3)CC2)=C(c2ccc(Cl)cc2)C1 [Venetoclax] + CCN(CCO)CCCOc1ccc2c(Nc3cc(CC(=O)Nc4cccc(F)c4)[nH]n3)ncnc2c1 [AZD2811] (first compound max 1 µM, 7x7, partner max 1 µM) ; value = 0.56

Value of combination Emax reported for the compound CS(=O)(=O)CCNCc1ccc(-c2ccc3ncnc(Nc4ccc(OCc5cccc(F)c5)c(Cl)c4)c3c2)o1 [Lapatinib] + NC1(c2ccc(-c3nc4ccn5c(=O)[nH]nc5c4cc3-c3ccccc3)cc2)CCC1 [MK-2206] (first compound max 10 µM, 7x7, partner max 10 µM) is 0.273

###

System: KARPAS-620 (Plasma Cell Myeloma)
TEST_PROTOCOL: Bliss excess, mean over the matrix (fraction); higher = more synergy
Classification field: 1 (yes) = Bliss excess at or over 0.03; 0 (no) = Bliss excess under 0.03.

Input: Bliss excess >= 0.03 for Cc1c2c(nn1C)CSCc1cc(n(C)n1)CSc1cc(c3ccccc3c1)OCCCc1c(C(=O)O)n(C)c3c-2c(Cl)ccc13 [AZD5991] + CC1(C)CCC(CN2CCN(c3ccc(C(=O)NS(=O)(=O)c4ccc(NCC5CCOCC5)c([N+](=O)[O-])c4)c(Oc4cnc5[nH]ccc5c4)c3)CC2)=C(c2ccc(Cl)cc2)C1 [Venetoclax] (first compound max 1 µM, 7x7, partner max 1 µM) ?
Output: 1 (yes)

Input: Check this compound for Bliss excess at or above 0.03: O=C(c1cc(Cc2n[nH]c(=O)c3ccccc23)ccc1F)N1CCN(C(=O)C2CC2)CC1 [Olaparib] + Cc1c2c(nn1C)CSCc1cc(n(C)n1)CSc1cc(c3ccccc3c1)OCCCc1c(C(=O)O)n(C)c3c-2c(Cl)ccc13 [AZD5991] (first compound max 10 µM, 7x7, partner max 1 µM)
Output: 0 (no)

Input: hey, is Bliss excess for this one >= 0.03? CC1(C)CCC(CN2CCN(c3ccc(C(=O)NS(=O)(=O)c4ccc(NCC5CCOCC5)c([N+](=O)[O-])c4)c(Oc4cnc5[nH]ccc5c4)c3)CC2)=C(c2ccc(Cl)cc2)C1 [Venetoclax] + C[C@@H](Nc1cc(F)cc(F)c1)c1cc(C(=O)N(C)C)cc2c(=O)cc(N3CCOCC3)oc12 [AZD8186] (first compound max 1 µM, 7x7, partner max 3 µM)
Output: 0 (no)

Input: Identify whether the reported Bliss excess of the following compound is 0.03 or greater: CN(CCO)CC[C@H](CSc1ccccc1)Nc1ccc(S(=O)(=O)NC(=O)c2ccc(N3CCC([C@@H](O)c4ccccc4-c4ccc(Cl)cc4)CC3)cc2)cc1S(=O)(=O)C(F)(F)F [AZD4320] + Cc1cc2ncnn2cc1Nc1ncc2c(n1)n(C1CCOCC1)c(=O)n2C [AZD7648] (first compound max 1 µM, 7x7, partner max 10 µM)
Output: 0 (no)

Input: Is the recorded value of Bliss excess equal to or greater than 0.03 for this compound? NC1(C(=O)N[C@@H](CCO)c2ccc(Cl)cc2)CCN(c2ncnc3[nH]ccc23)CC1 [Capivasertib] + CCN(CCO)CCCOc1ccc2c(Nc3cc(CC(=O)Nc4cccc(F)c4)[nH]n3)ncnc2c1 [AZD2811] (first compound max 10 µM, 7x7, partner max 1 µM)
Output: 0 (no)

Input: Is the recorded value of Bliss excess equal to or greater than 0.03 for this compound? C=CCn1c(=O)c2cnc(Nc3ccc(N4CCN(C)CC4)cc3)nc2n1-c1cccc(C(C)(C)O)n1 [AZD1775] + C[C@@H]1COCCN1C2=NC(=NC(=C2)C3(CC3)[S@](=N)(=O)C)C4=C5C=CNC5=NC=C4 [AZD6738] (first compound max 1 µM, partner max 10 µM)
Output: 1 (yes)

Attribution: the supplement of paper PMC11061612
